Reported IC50 values for a set of compounds
- tested-target: hP2X3 (Homo sapiens)
- Construct: expressed in transfected cells; host or cells: e.g. HEK293 or 1321N1
- assay-overview: Calcium uptake assay (P2X antagonist assay), P2X3 homomer
- Assay type: cell-based
- experimental-parameters: calcium uptake assay, hP2X3; read-out: IC50 hP2X3 (nM), Ca Influx
- Experimental: The human P2X2/3 chimera clone is created as described by Neelands et al, and then cloned into an expression vector as above. […] Functional activity of compounds at the P2X receptor is determined by measuring their ability to inhibit agonist-induced calcium influx. […] At the start of each screening day, the agonist EC50 is determined. Compound % inhibition or IC50s are subsequently determined using a predetermined agonist concentration (EC50-90 depending on cell line) as a stimulus. […]
measurement-kind: IC50

> print(dat)
                                    compound          result
 1  Cc1ccc(-c2cc(C(=O)NCc3cnc(C)cn3)cc(C(=O)N3CCCC3)c2)cc1 [Compound 51]        < 100 nM
 2  COc1ncc([C@@H](C)NC(=O)c2cc(C(=O)N3CC(O)C3)cc(-c3ccc(C)cc3)c2)cn1 [Compound 84]        < 100 nM
 3  Cc1ccc(-c2cc(C(=O)NCc3ccc4c(c3)S(=O)(=O)CC4)cc(C(=O)N3CCCC3)c2)cc1 [Compound 72]        < 100 nM
 4  Cc1ccc(-c2cc(C(=O)N[C@H](C)c3ccc(C(F)(F)F)nc3)cc(C(=O)N3CCCC3)c2)nc1 [Compound 135]        < 100 nM
 5  Cc1ccc(-c2cc(C(=O)NC(C)c3cnccn3)cc(C(=O)N(C)CC(C)C)c2)cc1 (stereo not shown) [Compound 8]        < 100 nM
 6  CCCS(=O)(=O)c1cc(C(=O)NCc2ccn3ccnc3c2)cc(-c2ccc(C)cc2)c1 [Compound 57]        < 100 nM
 7  Cc1ccc(-c2cc(C(=O)NCc3cnc(C)nc3)cc(S(C)(=O)=O)c2)c(C#N)c1 [Compound 59]        < 100 nM
 8  CCOC(=O)c1cc(C(=O)NCc2cnc(C)nc2)cc(-c2ccc(C)cc2)c1 [Compound 15]        < 100 nM
 9  Cc1ccc(-c2cc(C(=O)NCc3cnc(C)nc3)cc(C(=O)N3CCN(C)C(=O)C3)c2)cc1 [Compound 27]        < 100 nM
10  Cc1ccc(-c2cc(C(=O)NCc3cnc(C)nc3)cc(S(C)(=O)=O)c2)cc1 [Compound 22]        < 100 nM
11  Cc1ccc(-c2cc(C(=O)N[C@@H](C)CO)cc(S(C)(=O)=O)c2)cc1 [Compound 3]   100 to 500 nM
12  Cc1ccc(-c2cc(C(=O)NCc3ccc(C(F)(F)F)nc3)cc(C(=O)N3CCCC3)c2)nc1 [Compound 123]        < 100 nM
13  Cc1ccc(-c2cc(C(=O)NCc3ccc(C)nc3)cc(S(=O)(=O)N3CCCC3)c2)nc1 [Compound 106]        < 100 nM
14  Cc1ccc(-c2cc(C(=O)NCc3ccc(C)nc3)cc(C(=O)N3CCC(N4CCOCC4)C3)c2)cc1 (stereo not shown) [Compound 86]   100 to 500 nM
15  Cc1ccc(-c2cc(C(=O)NCc3cnc(C(C)C)nc3)cc(C(=O)N3CCCC3)c2)cc1 [Compound 80]  501 to 1000 nM
16  Cc1ccc(-c2cc(C(=O)NCc3ccc(C)nc3)cc(C(=O)N3CCCC3)c2)c(C#N)c1 [Compound 61]        < 100 nM

###

Recorded IC50 by entry
- tested-target: hP2X2/3H (Homo sapiens, UniProt P56373+Q9UBL9)
- Construct: expressed in transfected cells; host or cells: e.g. HEK293 or 1321N1
- Sequence (Q9UBL9 whole entry, one chain of several): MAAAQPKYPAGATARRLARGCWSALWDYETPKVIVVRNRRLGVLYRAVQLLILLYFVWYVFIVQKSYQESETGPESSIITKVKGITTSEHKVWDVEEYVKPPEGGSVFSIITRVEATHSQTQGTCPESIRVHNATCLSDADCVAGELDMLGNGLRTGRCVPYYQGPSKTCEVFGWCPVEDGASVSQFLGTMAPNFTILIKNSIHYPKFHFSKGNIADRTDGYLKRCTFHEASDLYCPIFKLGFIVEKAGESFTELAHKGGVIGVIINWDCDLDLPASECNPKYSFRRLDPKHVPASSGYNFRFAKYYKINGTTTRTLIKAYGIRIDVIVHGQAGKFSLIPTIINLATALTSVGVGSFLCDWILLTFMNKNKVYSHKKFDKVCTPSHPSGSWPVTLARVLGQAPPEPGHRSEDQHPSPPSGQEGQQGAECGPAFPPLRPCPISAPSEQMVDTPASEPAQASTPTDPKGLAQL
- assay-overview: Calcium uptake assay (P2X antagonist assay), P2X2/3 heteromer
- Format: cell-based
- experimental-parameters: Ca influx (calcium uptake assay), hP2X2/3H; read-out: IC50 hP2X2/3H
- Experimental: The human P2X2/3 chimera clone is created as described by Neelands et al, and then cloned into an expression vector as above. […] Functional activity of compounds at the P2X receptor is determined by measuring their ability to inhibit agonist-induced calcium influx. […] At the start of each screening day, the agonist EC50 is determined. Compound % inhibition or IC50s are subsequently determined using a predetermined agonist concentration (EC50-90 depending on cell line) as a stimulus. […]
measurement-kind: IC50

> print(dat)
                                   compound  measurement.kind         result
1  Cc1ccc(-c2cc(OCC3CCCO3)cc(C(=O)N[C@H](C)c3ccc(C)nc3)c2)cc1 (stereo partly shown)              IC50       < 100 nM
2  Cc1ccc(-c2cc(C(=O)NCc3ccc(C)[n+]([O-])c3)cc(C(=O)N3CCCC3)c2)cc1              IC50       < 100 nM
3  Cc1ccc(-c2cc(C(=O)NCc3ccc(C)nc3)cc(C(O)CN3CC(O)C3)c2)cc1 (stereo not shown)              IC50  100 to 500 nM
4  Cc1ccc(-c2cc(OC3COCC3O)cc(C(=O)N[C@H](C)c3cnc(C)nc3)c2)nc1 (stereo partly shown)              IC50  100 to 500 nM

###

Collected IC50 values appear next to each entry.
- tested-target: hP2X2/3H (Homo sapiens, UniProt P56373+Q9UBL9)
- Construct: expressed in transfected cells; host or cells: e.g. HEK293 or 1321N1
- assay-overview: Calcium uptake assay (P2X antagonist assay), P2X2/3 heteromer
- Format: cell-based
- experimental-parameters: Ca influx (calcium uptake assay), hP2X2/3H; read-out: IC50 hP2X2/3H
measurement-kind: IC50

> print(dat)
                                    compound         result
 1  Cc1ccc(-c2cc(OC(C)CO)cc(C(=O)N[C@H](C)c3ccc(C)nc3)c2)cc1 (stereo partly shown)       < 0.1 µM
 2  Cc1ccc(-c2cc(C(=O)N[C@H](C)c3ccc(C)nc3)cc(C(O)CO)c2)c(C#N)c1 (stereo partly shown)       < 0.1 µM
 3  Cc1ccc(-c2cc(Oc3nc4c(s3)CCCC4)cc(C(=O)N[C@H](C)c3ccc(C)nc3)c2)cc1  0.1 to 0.5 µM
 4  CCS(=O)(=O)c1cc(C(=O)NCc2cnc(C)nc2)cc(-c2ccc(C)cc2)c1       < 0.1 µM
 5  Cc1ccc(-c2cc(Oc3ncccn3)cc(C(=O)N[C@H](C)c3cnc(C)nc3)c2)c(C#N)c1  0.1 to 0.5 µM
 6  Cc1ccc(-c2cc(C(=O)N[C@H](C)c3ccc(C)nc3)cc(C(C)O)c2)cc1 (stereo partly shown)       < 0.1 µM
 7  Cc1ccc(-c2cc(Oc3ncccn3)cc(C(=O)N[C@H](C)c3cnc(C)nc3)c2)nc1  0.501 to 1 µM
 8  CCS(=O)(=O)c1cc(C(=O)NCc2ccc(C)nc2)cc(-c2ccc(C)cc2)c1       < 0.1 µM
 9  Cc1ccc(-c2cc(OCC(O)CO)cc(C(=O)N[C@H](C)c3ccc(C)nc3)c2)cc1 (stereo partly shown)       < 0.1 µM
10  Cc1ccc([C@@H](C)NC(=O)c2cc(C(=O)N3CCCC3)cc(-c3ccc(Br)cc3)c2)cn1       < 0.1 µM
11  Cc1ccc(-c2cc(CO)cc(C(=O)N[C@H](C)c3ccc(C)nc3)c2)c(C#N)c1       < 0.1 µM
12  Cc1ccc(-c2cc(Oc3ccccn3)cc(C(=O)N[C@H](C)c3ccc(C)nc3)c2)nc1       < 0.1 µM
13  COCCOc1cc(C(=O)N[C@H](C)c2ccc(C)nc2)cc(-c2ccc(C)cc2)c1       < 0.1 µM
14  [2H]C([2H])([2H])c1ccc(-c2cc(C(=O)NCc3ccc(C)nc3)cc(C(=O)N3CCCC3)c2)cc1       < 0.1 µM
15  COCC(CO)Oc1cc(C(=O)N[C@H](C)c2ccc(C)nc2)cc(-c2ccc(C)cn2)c1 (stereo partly shown)       < 0.1 µM
16  Cc1ccc(-c2cc(C(=O)N[C@H](C)c3ccc(C)nc3)cc(C(O)C(F)(F)F)c2)c(C#N)c1 (stereo partly shown)       < 0.1 µM

###

- tested-target: hP2X3 (Homo sapiens, UniProt P56373)
- Construct: expressed in transfected cells; host or cells: e.g. HEK293 or 1321N1
- Sequence (P56373 1-397): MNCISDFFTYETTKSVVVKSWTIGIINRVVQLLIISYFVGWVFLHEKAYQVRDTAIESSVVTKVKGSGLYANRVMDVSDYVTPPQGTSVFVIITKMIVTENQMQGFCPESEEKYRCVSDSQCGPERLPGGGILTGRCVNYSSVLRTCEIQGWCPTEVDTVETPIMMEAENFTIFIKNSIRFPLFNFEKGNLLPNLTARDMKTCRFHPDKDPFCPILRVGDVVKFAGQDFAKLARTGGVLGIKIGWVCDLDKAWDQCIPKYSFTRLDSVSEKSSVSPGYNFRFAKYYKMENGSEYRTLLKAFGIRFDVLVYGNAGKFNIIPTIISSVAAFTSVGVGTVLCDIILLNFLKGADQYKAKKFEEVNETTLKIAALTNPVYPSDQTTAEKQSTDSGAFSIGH
- assay-overview: Calcium uptake assay (P2X antagonist assay), P2X3 homomer
- Format: cell-based
- experimental-parameters: calcium uptake assay, hP2X3; read-out: IC50 hP2X3 (nM), Ca Influx
measurement-kind: IC50

> print(dat)
                                   molecule         result
1  Cc1ccc(-c2cc(C(=O)NCc3ccc(C)nc3)cc(C(=O)N(C)C3CCNCC3)c2)cc1  100 to 500 nM
2  Cc1ccc(-c2cc(C(=O)NCc3ccc(C)nc3)cc(C(=O)N3CC[C@@H](O)C3)c2)nc1       < 100 nM
3  Cc1ccc(-c2cc(C(=O)N[C@@H](C)CN3CCOCC3)cc(C(=O)N3CCCC3)c2)cc1       < 100 nM
4  COc1ccc([C@@H](CO)NC(=O)c2cc(C(=O)N(C)CC(C)C)cc(-c3ccc(C)cc3)c2)cn1  100 to 500 nM
5  Cc1ccc(-c2cc(C(=O)NCc3ncc(C(F)(F)F)cc3Cl)cc(C(=O)N3CC(O)C3)c2)cc1       < 100 nM
6  Cc1ccc(-c2cc(C(=O)NCc3cnc(C)nc3)cc(C(=O)N3CCCC3C(F)(F)F)c2)cc1 (stereo not shown)       < 100 nM
7  Cc1ccc(-c2cc(C(=O)N[C@H](C)c3ccc(C)nc3)cc(C(=O)N3CCN4CCCC4C3)c2)cc1 (stereo partly shown)       < 100 nM
